- target_desc: T1, hCD112R mFC recombinant protein (human; murine, UniProt Q6DKI7 41-160)
- T1 construct: range 41-160; expressed in 293E cells; also called hCD112R ECD mFC; hCD112R-ECD-mFC; not shown: murine IgG2a Fc domain (MX2-mFc vector)
- T1 sequence (looked up): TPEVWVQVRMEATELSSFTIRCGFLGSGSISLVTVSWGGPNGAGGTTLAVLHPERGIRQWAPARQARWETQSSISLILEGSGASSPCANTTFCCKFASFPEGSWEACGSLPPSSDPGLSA
- experiment: ELISA, coated hCD112R-ECD-mFC
Kindly state EC50 for each of the entries shown.
Answers are plain numbers, in ng/mL.

Answered cases to consult:
Hu56 (antibody, IgG4, V domains shown, humanized IgG4) VH: EVQLVESGGGLVQPGGSLRLSCAASGFTFSSYHMSWIRQAPGKGLELVAAINSNGINTYYLDTVKGRFTISRDNAKNSLYLQMNSLRAEDTAVYYCARHEDYYGFAMDYWGQGTLVTVSS VL: AIQMTQSPSSLSASVGDRVTITCKASQSVTNDVAWYQQKPGKAPKLLIYYVSNHYTGVPSRFSGSGSGTDFTLTISSLQPEDFATYFCQQAYRSPWTFGQGTKLEIK: 4.75
Hu15 (antibody, IgG4, V domains shown, humanized IgG4) VH: EVQLVESGGGLVKPGGSLRLSCAASGFTFSSYHMSWVRQAPGKGLELVSAISRDGDSTYYPDTVKGRFTISRDNAKNSLYLQMNSLRAEDTAVYYCSRHEDYFGFAMDSWGQGTLVTVSS VL: EIVMTQSPPTLSLSPGERVTLSCKASQSVSNDVAWYQEKPGQAPRLLIYYVSHRFTGIPARFSGSGSGTDFTLTISSLQPEDFAVYYCHQAYRSPWTFGQGTKLEIK: 4.51
Hu21 (antibody, IgG4, V domains shown, humanized IgG4) VH: EVQLVESGGGLVKPGGSLRLSCAASGFTFSSYHMSWVRQAPGKGLELVSAISRDGDSTYYPDTVKGRFTISRDDAENSLYLQMNSLRAEDTAVYYCSRHEDYFGFAMDSWGQGTLVTVSS VL: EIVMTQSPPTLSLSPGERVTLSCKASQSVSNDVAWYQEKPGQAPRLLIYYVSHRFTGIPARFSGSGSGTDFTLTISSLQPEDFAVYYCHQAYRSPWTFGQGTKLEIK: 2.9

Provide reported EC50 for each item, in the same order as listed.
1. Hu30 (antibody, IgG4, V domains shown, humanized IgG4) VH: EVQLVESGGGLVQPGGSLRLSCAASGFTFSSYHMSWVRQAPGKGLELVAAISRDGDSTYYPDTVKGRFTISRDNAKNSLYLQMNSLRAEDTAVYYCSRHEDYFGFAMDSWGQGTLVTVSS VL: EIVMTQSPPTLSLSPGERVTLSCKASQSVSNDVAWYQQKPGQAPRLLIYYVSNRFTGIPARFSGSGSGTDFTLTISSLQPEDFAVYFCQQAYRSPWTFGQGTKLEIK
2. Hu20 (antibody, IgG4, V domains shown, humanized IgG4) VH: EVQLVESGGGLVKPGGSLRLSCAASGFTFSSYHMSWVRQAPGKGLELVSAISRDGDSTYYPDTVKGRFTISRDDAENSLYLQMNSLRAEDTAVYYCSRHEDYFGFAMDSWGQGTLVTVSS VL: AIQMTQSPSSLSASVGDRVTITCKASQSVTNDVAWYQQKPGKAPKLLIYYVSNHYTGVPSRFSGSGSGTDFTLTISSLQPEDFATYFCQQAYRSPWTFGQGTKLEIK

[3.96, 5.18]

These entries and their values trace back to patent US20240309087A1.
